Provenance of the data: patent US20200385482A1

assayed target: T1, human PD-L1 (hPD-L1) expressed on transfected 300.19 cells (human, UniProt Q9NZQ7 19-290)
T1 construct: whole, on cells; also called B7H1
T1 sequence (Q9NZQ7 19-290): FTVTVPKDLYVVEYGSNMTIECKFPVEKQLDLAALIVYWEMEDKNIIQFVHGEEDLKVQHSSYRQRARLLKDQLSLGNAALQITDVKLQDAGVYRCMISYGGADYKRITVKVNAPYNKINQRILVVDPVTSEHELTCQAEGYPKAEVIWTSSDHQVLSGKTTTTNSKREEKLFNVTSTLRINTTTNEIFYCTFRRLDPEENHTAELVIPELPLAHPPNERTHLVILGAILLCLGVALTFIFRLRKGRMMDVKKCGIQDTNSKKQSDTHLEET
experimental protocol: competition FACS, hPD-L1 300.19 cells, signal = bound hPD-1-mIgG2a, Ab 1 ug/ml
Listing of entries alongside the reported Cells PE-A Mean (bound hPD-1-mIgG2a).
The number alone won't do; follow it with the unit.

Would you please look over these solved cases?
Ab-30 (antibody, V domains shown, also called huPD-L1 Ab # 30) VH: QVQLVQSGGSVVRPGESLRLSCVASGFIFDNYDMSWVRQVPGKGLEWVSRVNWNGGSTTYADAVKGRFTISRDNTKNSLYLQMNNLRAEDTAVYYCVREFVGAYDLWGQGTTVTVSS VL: QSALTQPASVSGSPGQSITISCTGTSSDVGGYNYVSWYQQHPGKAPKLMIYDVSNRPSGVSNRFSGSKSGNTASLTISGLQAEDEADYYCSSYTSSTLPFGGGTKLTVL    661 MFI
Ab-31 (antibody, V domains shown, also called huPD-L1 Ab # 31) VH: QVQLVQSGAEVKKPGATVKVSCKVFGDTFRGLYIHWVRQAPGQGLEWMGGIIPIFGTANYAQKFQGRVTITTDESTSTAYMELSSLRSEDTAVYYCASGLRWGIWGWFDPWGQGTLVTVSS VL: EIVLTQSPATLSLSPGERATLSCRASQSIGNSLAWYQQKPGQAPRLLMYGASSRATGIPDRFSGSGAGTDFTLTISSLEPEDFATYYCQQHTIPTFSFGPGTKVEVK    623 MFI

Please examine the following record next.
Form: binder = Ab-42 (antibody, V domains shown, also called huPD-L1 Ab # 42; mAb42) VH: QVQLVQSGAEVKKPGSSVKVSCKASGGTFSSYAISWVRQAPGQGLEWMGGIIPIFGTANYAQKFQGRVTITADKSTSTAYMELSSLRSEDTAVYYCARGRQMFGAGIDFWGPGTLVTVSS VL: NFMLTQPHSVSESPGKTVTISCTRSSGSIDSNYVQWYQQRPGSAPTTVIYEDNQRPSGVPDRFSGSIDSSSNSASLTISGLKTEDEADYYCQSYDSNNRHVIFGGGTKLTVL ; Cells PE-A Mean (bound hPD-1-mIgG2a) = 142 MFI
